B1: glmS ribozyme (parent)
chain: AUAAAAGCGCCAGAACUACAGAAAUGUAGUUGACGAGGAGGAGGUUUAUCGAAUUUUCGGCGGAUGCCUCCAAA

Variants of: B1
assay text: self-cleavage kobs at 640 uM GlcN6P; higher = faster cleavage; RNA array
test conditions: with glucosamine-6-phosphate
Fewer inactive variants are shown than the library holds.
reported metric: self-cleavage kobs at 640 uM GlcN6P

# example entries with known answers
Task item: Any idea what its self-cleavage kobs at 640 uM GlcN6P is? The variant is AUAAAGGCGCCAGAACUACAGAAAUGUAGUGGACAAGGAGGAGGUUUAUCGAAUUUUCGGCGGACGCCUCCAAA [A6G U31G G35A U65C]
Reply: < 1e-05 s⁻¹

Task item: Any idea what its self-cleavage kobs at 640 uM GlcN6P is? The variant is AUAAAAGCGCCAGAAAUACAGAAAUGUAGUUGACGAGGAGGAGGUUUAUCGAAUUUUCUACGGAUGCCUCCAAA [C16A G59U G60A]
Reply: < 1e-05 s⁻¹

Task item: Any idea what its self-cleavage kobs at 640 uM GlcN6P is? The variant is AUAAAAGCGCCAGAACUACAGAAAUGUAGUUGACGAGGAUGAGUUUUAUCGAAUUUUCGGCUGAUGCCUCCAAA [G40U G44U G62U]
Reply: < 1e-05 s⁻¹

Task item: Any idea what its self-cleavage kobs at 640 uM GlcN6P is? The variant is AUAAAUUCGCCAGAACUACAGAAAUGUAGUUGACUAGGAGGAGGUUUAUCGAAAUUUCGGCGGAUGCCUCCAAA [A6U G7U G35U U54A]
Reply: < 1e-05 s⁻¹

Task item: Any idea what its self-cleavage kobs at 640 uM GlcN6P is? The variant is AUAAAAGCGCCAGAAGUACAGAAAUGUAGUUGUCGAGGAGGAGGUUUAUCGUAUUUUCGGUGGAUGCCUCUAAA [C16G A33U A52U C61U C71U]
Reply: < 1e-05 s⁻¹

New cases:
Task item: Any idea what its self-cleavage kobs at 640 uM GlcN6P is? The variant is AUAAAAGCGCCAGAACUACAGAAAUGUAGUUGACGAGUAGGAGGUUUAUCGUAUUUUCGGCGGAUGCCUCCAAA [G38U A52U]
Reply: < 1e-05 s⁻¹

Task item: Any idea what its self-cleavage kobs at 640 uM GlcN6P is? The variant is AUAAAAGCGCCAGAACUACAGAAAUGUAGUUGACCAGGAGGAGGUUUAUCGAAUUUUCGGCGGAUGCCUUCAAA [G35C C70U]
Reply: < 1e-05 s⁻¹

Task item: Any idea what its self-cleavage kobs at 640 uM GlcN6P is? The variant is AUAAAAUCGCCAGAACUACAGAAAUGUAGUUGACGCGGAGGAGGUUUUUCGAAUUUUCGGCGGAUGCCUCCAAA [G7U A36C A48U]
Reply: < 1e-05 s⁻¹

Task item: Any idea what its self-cleavage kobs at 640 uM GlcN6P is? The variant is AUAAAACCGCCAGAACUACAGAAAUGUAGUUGACGAGGAGGAGGUUUAUCGAAUUUUCGGCGGAGGCCUCCAAA [G7C U65G]
Reply: < 1e-05 s⁻¹

Task item: Any idea what its self-cleavage kobs at 640 uM GlcN6P is? The variant is AUAAAAGAGCCAGAACUACAGAAAUGUAGUUGACGAGGAGGAGGUUUAUGGAAUUUUCGGCGGAUGCCUCCAAA [C8A C50G]
Reply: 0.00101 s⁻¹

Task item: Any idea what its self-cleavage kobs at 640 uM GlcN6P is? The variant is AUAAAAGCGCCAGAACUACAGAAAUGUAGUUGACGCGGAGGAGGUUUAUCGCAUUUUCGGCGGAUGCCUUCAAA [A36C A52C C70U]
Reply: < 1e-05 s⁻¹

Task item: Any idea what its self-cleavage kobs at 640 uM GlcN6P is? The variant is AUAAAAGCGCCAGAACUACAGAAAUGUACUUGACGAGGAGGAGGAUUAUCGAAUUUUCGGCGGAUGACUCCAAA [G29C U45A C67A]
Reply: 0.000165 s⁻¹

Task item: Any idea what its self-cleavage kobs at 640 uM GlcN6P is? The variant is AUAAAAGCGGCAGAACUACAGAAAUGUAGUUGACGAGGAGGAGGUUUAUCGAAUUUUCGCCGGAUGCCUCCAAA [C10G G60C]
Reply: 0.000733 s⁻¹

Task item: Any idea what its self-cleavage kobs at 640 uM GlcN6P is? The variant is AUAAAAGCGCCAGAACUACAGAAAUGUAGUUGACCUGGGGGAGGUUUAUCGAAUUUUCGGCGGAUGCCUCCAAA [G35C A36U A39G]
Reply: < 1e-05 s⁻¹

Task item: Any idea what its self-cleavage kobs at 640 uM GlcN6P is? The variant is AUAAAAGCGCCAGAACUACAGAAAUGUAGUUGACCAGGAGAAGGUUUAACGAAUUUUGGGCGGAUGCCUCUAAA [G35C G41A U49A C58G C71U]
Reply: < 1e-05 s⁻¹

Task item: Any idea what its self-cleavage kobs at 640 uM GlcN6P is? The variant is AUAAAAGCGCCAGAACUACAGAAAUGUAGUUGACGAGGAGGAGCUUUAUCGAAUUUUCGGCAGAUGCCUCCAAA [G44C G62A]
Reply: < 1e-05 s⁻¹
